# Tested on: human lung carcinoma epithelial cells A549
# Format: cell-based
# Experimental parameters: 48 h
Where a name gives a salt, the structure may show the parent alone.
Readout label: IC50 (µM)

1. CCCCCCCCCCCCCCCCCCNC(=O)[C@H](CCC(=O)O)NC(=O)[C@H]1CCCN1C(=O)[C@H](CCC(=O)O)NC(=O)OCc1ccccc1; 45
2. CCCCCCCCCCCCCCCCCCNC(=O)[C@H](CCC(=O)O)NC(=O)[C@H]1CCCN1C(=O)[C@@H](N)CCCN [DICAM 22, Orn- Pro -Glu-NH-C18H37 · HCl]; 59.6
3. CCCCCCCCCCCCCCCCCCNC(=O)[C@H](CCC(=O)O)NC(=O)[C@H]1CCCN1C(=O)[C@H](C)NC(C)=O; 40
4. CCCCCCCCCCCCCCCCNC(=O)[C@H](CCC(=O)O)NC(=O)[C@H]1CCCN1C(=O)[C@H](CC(N)=O)NC(=O)OCc1ccccc1; 35
5. CCCCCCCCCCCCCCCCCCNC(=O)[C@H](CCC(=O)O)NC(=O)[C@H]1CCCN1C(=O)[C@H](CC(N)=O)NC(=O)OCc1ccccc1; 45
6. CCCCCCCCCCCCCCCCCCNC(=O)[C@H](CCC(=O)O)NC(=O)[C@H]1CCCN1C(=O)[C@@H](N)CC(N)=O [DICAM 2, Asn- Pro -Glu-NH-C18H37 ·HCl]; 42
7. CCCCCCCCCCCCCCCCCCNC(=O)[C@H](C)NC(=O)[C@H]1CCCN1C(=O)[C@H](C)N [DICAM 14, Ala- Pro -Ala-NH-C18H37 · HCl]; 8
8. CCCCCCCCCCCCCCCCCCNC(=O)[C@H](CCC(=O)O)NC(=O)[C@H]1CCCN1C(=O)[C@@H](N)CCC(=O)O [DICAM 20, Glu- Pro -Glu-NH-C18H37 · HCl]; 91
9. CCCCCCCCCCCCCCCCCCNC(=O)[C@H](CCC(=O)O)NC(=O)[C@H]1CCCN1C(=O)[C@H](C)NC(=O)OCc1ccccc1; 59.2
